The measurements presented in this section are drawn from PubChem BioAssay (NCATS).

System: PA-1
protocol.summary: Primary qHTS to identify gynecologic anti-cancer compounds using libraries of approved drugs and bioactive compounds (AID 1345084); further: potency means the concentration at half of the fitted maximal effect; nearly all actives have a fitted effect of over 55% in size
test.settings: Gynecologic cancer cell panel viability, ATPlite luminescence, 48 h; series mostly up to 57.5 µM
Results filed as inconclusive are left out. Calls of active or inactive are those of the source. The call rests on the fitted dose curve; in most records, active means well fitted cell-killing curve with a large enough effect; inconclusive means small, poorly fitted or top-dose-only effect, or effect the other way; inactive means flat fitted curve, though single readings scatter.
For each of the compounds below, state its Potency.

CCN(CC)CCNC(=O)c1c(C)[nH]c(/C=C2\C(=O)Nc3ccc(F)cc32)c1C: 10 µM (active)
CC[N+](CC)(CC)CCOc1ccc(/C=C/c2ccccc2)cc1: 2.51 µM (active)
COc1ccc2cc1Oc1ccc(cc1)C[C@H]1c3c(cc4c(c3Oc3cc5c(cc3OC)CCN(C)[C@@H]5C2)OCO4)CCN1C: 28.2 µM (active)
Oc1cn2c(n1)Nc1ccc(Cl)c(Cl)c1C2: 0.355 µM (active)

Potency lookup needed for `Cc1cc(N)c2ccccc2[n+]1CCCCCCCCCC[n+]1c(C)cc(N)c2ccccc21` , thanks.
22.4 µM (active)
